Assay: YAP1 pathway inhibitors via CTGF transcript, primary screen, DLD1 colon cancer cells, RT-qPCR, single point (AID 743449);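 further: 0% = neutral control wells and 100% = dasatinib control wells; higher means stronger suppression of CTGF expression like dasatinib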
Conditions: DLD1 CTGF mRNA qPCR, 24 h; at 12.5 µM; hits give high values
About 90 (0.9%) of roughly 9,900 compounds were called active. Inconclusive results (about 2%) are left out. The sample as a whole holds a higher share of actives than the screen did.
measurement name: inhibition

Prompt line: Given COc1ccc(NC(=O)N[C@H]2CC[C@H](CCNC(=O)CN3CCOCC3)O[C@H]2CO)cc1 , state its recorded inhibition.
Response line: -23.1% (inactive)

Prompt line: Given COc1cccc(CNC(=O)[C@H]2[C@H](CO)[C@H]3Cn4c(ccc(-c5cncnc5)c4=O)[C@H]3N2C)c1 , state its recorded inhibition.
Response line: 1.36% (inactive)

Next item in the queue.
Prompt line: Given CS(=O)(=O)N1[C@@H](CO)[C@@H](c2ccccc2)C12CN(Cc1cc(F)ccc1F)C2 , state its recorded inhibition.
Response line: 2.97% (inactive)
